test: Rat tissue distribution of 99mTc complexes of example ligands (Table 6); type: in vivo, Sprague-Dawley Rats; details: 99mTc complex, Blood, 5 min
result type: Blood tissue distribution (% ID/g)
Write the value in % ID/g as a bare number.

Exercise: Give the value of Blood tissue distribution reported for the following: N[C@@H](CCCCN(Cc1nccn1CC(=O)O)Cc1nccn1CC(=O)O)C(=O)O (stereo in doubt) [Compound 2]
Key: 1.33

Exercise: Give the value of Blood tissue distribution reported for the following: Cn1ccnc1CN(CCCC[C@H](N)C(=O)O)CC(=O)O [Compound 18]
Key: 1.03

Exercise: Give the value of Blood tissue distribution reported for the following: COC(Cn1ccnc1CN(CCCC[C@H](N)C(=O)O)Cc1nccn1CC(OC)OC)OC (stereo in doubt) [Compound 6]
Key: 1.46

====

Field: Sk. Muscle tissue distribution. Provide a value for each of the compounds that follow.
assay: Rat tissue distribution of 99mTc complexes of example ligands (Table 6); type: in vivo, Sprague-Dawley Rats; details: 99mTc complex, Sk. Muscle, 120 min
Write the value in % ID/g as a bare number.

Exercise: Give the value of Sk. Muscle tissue distribution reported for the following: CCOCCn1ccnc1CN(CCCC[C@H](N)C(=O)O)Cc1nccn1CCOCC (stereo in doubt)
Key: 0.01

Exercise: Give the value of Sk. Muscle tissue distribution reported for the following: N[C@@H](CCCCN(Cc1nccn1CC(=O)O)Cc1nccn1CC(=O)O)C(=O)O (stereo in doubt)
Key: 0.14

Exercise: Give the value of Sk. Muscle tissue distribution reported for the following: COC(Cn1ccnc1CN(CCCC[C@H](N)C(=O)O)Cc1nccn1CC(OC)OC)OC (stereo in doubt)
Key: 0.01

Exercise: Give the value of Sk. Muscle tissue distribution reported for the following: N[C@@H](CCCCN(Cc1ccccn1)Cc1ccccn1)C(=O)O [DpK, [ε-{N,N-di(pyridyl-2-methyl)}α-lysine], reference compound]
Key: 0.01

Exercise: Give the value of Sk. Muscle tissue distribution reported for the following: "Cn1ccnc1CN(CCCC[C@H](N)C(=O)O)Cc1nccn1C"
Key: 0.01

Exercise: Give the value of Sk. Muscle tissue distribution reported for the following: "Cn1ccnc1CN(CCCC[C@H](N)C(=O)O)CC(=O)O"
Key: 0.02

Exercise: Give the value of Sk. Muscle tissue distribution reported for the following: "N[C@@H](CCCCN(Cc1nccs1)Cc1nccs1)C(=O)O"
Key: 0.12

====

Field: GI tissue distribution. Provide a value for each of the compounds that follow.
experiment: Rat tissue distribution of 99mTc complexes of example ligands (Table 6); type: in vivo, Sprague-Dawley Rats; settings: 99mTc complex, GI, 30 min

Exercise: Give the value of GI tissue distribution reported for the following: Cn1ccnc1CN(CCCC[C@H](N)C(=O)O)Cc1nccn1C [Compound 13]
Key: 0.45 ± 0.11 % ID/g

Exercise: Give the value of GI tissue distribution reported for the following: N[C@@H](CCCCN(Cc1nccs1)Cc1nccs1)C(=O)O [DtK, (dithiazole)lysine]
Key: 0.59 ± 0.13 % ID/g

Exercise: Give the value of GI tissue distribution reported for the following: CCOCCn1ccnc1CN(CCCC[C@H](N)C(=O)O)Cc1nccn1CCOCC (stereo in doubt) [Compound 4]
Key: 2.33 ± 0.61 % ID/g

Exercise: Give the value of GI tissue distribution reported for the following: N[C@@H](CCCCN(Cc1nccn1CC(=O)O)Cc1nccn1CC(=O)O)C(=O)O (stereo in doubt) [Compound 2]
Key: 0.44 ± 0.08 % ID/g

Exercise: Give the value of GI tissue distribution reported for the following: N[C@@H](CCCCN(Cc1ccccn1)Cc1ccccn1)C(=O)O [DpK, [ε-{N,N-di(pyridyl-2-methyl)}α-lysine], reference compound]
Key: 0.89 ± 0.07 % ID/g

Exercise: Give the value of GI tissue distribution reported for the following: Cn1ccnc1CN(CCCC[C@H](N)C(=O)O)CC(=O)O [Compound 18]
Key: 1.96 ± 0.49 % ID/g

Exercise: Give the value of GI tissue distribution reported for the following: COC(Cn1ccnc1CN(CCCC[C@H](N)C(=O)O)Cc1nccn1CC(OC)OC)OC (stereo in doubt) [Compound 6]
Key: 1.05 ± 0.2 % ID/g
